# protocol.description: chemical genetic growth profiling, strain panel (AID 1159580);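 note: tested at 20 µM; growth read once vehicle control cultures reached saturation at 30 °C; 1 = growth at the plate median or of vehicle wells; lower values mean less growth of the strain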
# condition.parameters: S. cerevisiae deletion strains, growth OD, locus YCR088W, strain abp1, stronger effect = lower value
Screen size: about 5,500 compounds; about 2,000 (36%) were called active. About 18% were inconclusive and are not listed. The list shows a part of the results.
endpoint: normalized growth
Output: the number by itself.

What measured normalized growth goes with O=c1cccc2n1CC1CC2CN2CCCC[C@@H]12 (stereo not given in full) ?
0.973

Try this compound next: Oc1c(Cl)cc(Cl)c(Cl)c1Cc1c(O)c(Cl)cc(Cl)c1Cl
0.0632

Try this compound next: C=C[C@@]1(C)CC(=O)[C@@]2(O)[C@](C)(O1)[C@@H](OC(C)=O)[C@@H](O)C1C(C)(C)CC[C@H](O)[C@@]12C (stereo not given in full)
0.996

Try this compound next: CC(=O)OCC(=O)[C@@]1(O)CCC2C3CCC4=CC(=O)C=CC4(C)C3[C@@H](O)C[C@@]21C (stereo not given in full)
0.998

Try this compound next: COC(=O)[C@@H]1OC(=O)C2OC23[C@@]1(C)CCC1[C@]2(C)C(C[C@@H](O)[C@]13C)C(C)(C)[C@H](OC(C)=O)C[C@@H]2OC(C)=O (stereo not given in full)
0.991

Try this compound next: CN(C)CCC(c1ccccc1)c1ccccn1 (stereo not given)
1

Try this compound next: COc1cc(NS(C)(=O)=O)ccc1Cc1c2ccccc2nc2ccccc12
0.986

Try this compound next: Cc1oncc1C(=O)Nc1ccc(C(F)(F)F)cc1
0.978

Try this compound next: CCCNC(=O)NS(=O)(=O)c1ccc(Cl)cc1
0.996

Try this compound next: O=c1oc2ccccc2cc1O
0.986
